This collection of values is drawn from patent US20110183980A1.

subject_of_test: rat mGluR5 (Rattus norvegicus)
Construct: expressed in transfected cells; host or cells: human embryonic kidney (HEK) cells
experiment_description: Potentiation of glutamate response, Ca2+ fluorescence (FDSS) in HEK cells transfected with rat mGluR5
Type: cell-based
experimental_conditions: Table 1; potentiation of mGluR5 response to glutamate; read-out: EC50
recorded_metric: pEC50
Give bare numbers, as −log10 of the molar value.

Use the examples below as a reference point.
>>> quantitative_readout("Cc1nc(OCc2cccc(F)c2)ccc1C(=O)N[C@H](C)C1CCCCC1")
6.06
>>> quantitative_readout("O=C(NC1CCC1)c1ccc(OCc2ccccc2)nc1")
6.47
>>> quantitative_readout("O=C(Nc1cccc(F)c1)c1ccc(OCc2cccc(F)c2)nc1")
6.34

Please supply pEC50 for each of the following items, keeping them in order.
1. O=C(Nc1ccc(F)cc1F)c1ccc(OCc2ccncc2)nc1
2. CC(C)(C)CCNC(=O)c1ccc(OCc2cc(F)cc(F)c2)nc1

Solution:
6.09
5.96

* * *

subject_of_test: rat mGluR5 (Rattus norvegicus)
Construct: expressed in transfected cells; host or cells: human embryonic kidney (HEK) cells
experiment_description: Potentiation of glutamate response, Ca2+ fluorescence (FDSS) in HEK cells transfected with rat mGluR5
Format: cell-based
experimental_conditions: Table 1; potentiation of mGluR5 response to glutamate; read-out: EC50
recorded_metric: pEC50
Numbers only, as −log10 of the molar value.

Please supply pEC50 for each of the following items, keeping them in order.
1. O=C(NC1CCC1)c1ccc(OCc2ccc(F)cc2)nc1 [Example 2.3b.2]
2. O=C(NC1CCCCC1)c1ccc(OCc2ccncc2)nc1 [Example 1.2i.3]
3. O=C(NCC1CCOCC1)c1ccc(OCc2cccc(F)c2)nc1 [Example 1.2c.17]
4. Cc1nc(OCc2ccncc2)ccc1C(=O)N[C@H](C)C1CCCCC1 [Example 1.2n.2]
5. O=C(NCC1CC1)c1ccc(OCc2cccc(F)c2)nc1 [Example 1.2c.14]

Solution:
1. 5.92
2. 5.92
3. 5.96
4. 6.10
5. 6.04

* * *

subject_of_test: rat mGluR5 (Rattus norvegicus, UniProt P31424)
Construct: expressed in transfected cells; host or cells: human embryonic kidney (HEK) cells
Sequence (P31424 21-1203): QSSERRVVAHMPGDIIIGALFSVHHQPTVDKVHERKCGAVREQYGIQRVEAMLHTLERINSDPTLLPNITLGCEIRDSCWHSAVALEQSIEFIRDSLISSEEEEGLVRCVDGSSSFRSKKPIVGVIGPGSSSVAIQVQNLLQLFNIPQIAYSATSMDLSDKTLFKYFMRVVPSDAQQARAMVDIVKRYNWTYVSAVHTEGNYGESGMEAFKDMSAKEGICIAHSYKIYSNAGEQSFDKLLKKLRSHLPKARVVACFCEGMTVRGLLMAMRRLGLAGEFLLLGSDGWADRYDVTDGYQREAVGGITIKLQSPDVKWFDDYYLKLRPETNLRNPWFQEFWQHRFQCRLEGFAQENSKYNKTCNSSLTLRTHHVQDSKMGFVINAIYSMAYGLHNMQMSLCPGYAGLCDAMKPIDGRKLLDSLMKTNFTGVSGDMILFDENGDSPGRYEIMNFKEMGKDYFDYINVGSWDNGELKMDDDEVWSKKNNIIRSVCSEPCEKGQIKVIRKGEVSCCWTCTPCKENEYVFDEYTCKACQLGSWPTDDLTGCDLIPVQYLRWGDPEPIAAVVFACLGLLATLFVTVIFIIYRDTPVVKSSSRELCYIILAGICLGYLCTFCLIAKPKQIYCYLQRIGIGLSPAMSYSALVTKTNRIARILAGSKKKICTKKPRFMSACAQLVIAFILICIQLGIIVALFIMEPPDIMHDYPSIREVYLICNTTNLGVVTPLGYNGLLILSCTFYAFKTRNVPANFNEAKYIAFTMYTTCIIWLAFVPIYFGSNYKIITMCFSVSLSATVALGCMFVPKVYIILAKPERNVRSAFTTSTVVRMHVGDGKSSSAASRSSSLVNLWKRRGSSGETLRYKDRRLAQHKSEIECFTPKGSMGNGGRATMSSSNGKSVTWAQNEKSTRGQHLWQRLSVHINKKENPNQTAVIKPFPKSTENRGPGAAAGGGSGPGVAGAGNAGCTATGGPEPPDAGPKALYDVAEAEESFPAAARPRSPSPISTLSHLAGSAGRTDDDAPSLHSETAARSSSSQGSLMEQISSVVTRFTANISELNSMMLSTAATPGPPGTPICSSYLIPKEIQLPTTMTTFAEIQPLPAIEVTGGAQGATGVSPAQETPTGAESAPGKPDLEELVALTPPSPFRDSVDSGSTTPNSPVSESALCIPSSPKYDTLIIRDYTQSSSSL
experiment_description: Potentiation of glutamate response, Ca2+ fluorescence (FDSS) in HEK cells transfected with rat mGluR5
Assay type: cell-based
experimental_conditions: Table 1; potentiation of mGluR5 response to glutamate; read-out: EC50
Please go through the items and note down their pEC50.
One number for each entry, as −log10 of the molar value.

Use the examples below as a reference point.
>>> quantitative_readout("CC(C)(C)CCNC(=O)c1ccc(OCc2ccccc2)nc1 [Example 1.2a.8]")
7.04
>>> quantitative_readout("O=C(NCC1CCOCC1)c1ccc(OCc2ccccc2)nc1 [Example 1.2a.21]")
5.41
>>> quantitative_readout("O=C(NC1CCCCC1)c1ccc(OCc2ccsc2)nc1 [Example 2.3a.8]")
6.92
>>> quantitative_readout("O=C(c1ccc(OCc2cccc(F)c2)nc1)N1CCOCC1 [Example 1.2c.7]")
5.77
>>> quantitative_readout("Cc1ccc(COc2ccc(C(=O)NC3CCC3)cn2)cc1 [Example 2.3b.1]")
5.74
>>> quantitative_readout("CCCCOc1ccc(C(=O)Nc2ccccc2)cn1 [Example 1.2j.5]")
6.19
>>> quantitative_readout("C[C@@H](NC(=O)c1ccc(OCc2ccccc2)nc1)C1CCCCC1 [Example 1.2a.19]")
7.40
>>> quantitative_readout("O=C(NC1CCOCC1)c1ccc(OCc2cccc(F)c2)nc1 [Example 1.2c.20]")
5.80

Please supply pEC50 for each of the following items, keeping them in order.
1. O=C(Nc1ccccc1)c1ccc(OCc2ccccc2)nc1 [Example 1.2a.14]
2. O=C(Nc1ccccn1)c1ccc(OCc2ccc(F)cc2)nc1 [Example 1.2d.1]
3. O=C(Nc1ccccn1)c1ccc(OCc2ccccc2F)nc1 [Example 1.2f.1]

Solution:
6.42
5.89
6.52

Please supply pEC50 for each of the following items, keeping them in order.
1. O=C(Nc1ccccc1F)c1ccc(OCc2ccccc2)nc1 [Example 1.2a.15]
2. CC(C)(C)CCNC(=O)c1ccc(OCc2cccc(F)c2)nc1 [Example 1.2c.3]
3. O=C(Nc1ccc(F)cc1F)c1ccc(OCc2cccc(F)c2)nc1 [Example 1.2c.21]
4. Cc1nc(OCc2cccc(F)c2)ccc1C(=O)NC1CCCCC1 [Example 1.2m.3]

Solution:
1. 6.51
2. 7.07
3. 7.12
4. 6.21
